# system tested: BTK (Homo sapiens (Human), UniProt Q06187)
# Sequence (Q06187 whole entry, looked up): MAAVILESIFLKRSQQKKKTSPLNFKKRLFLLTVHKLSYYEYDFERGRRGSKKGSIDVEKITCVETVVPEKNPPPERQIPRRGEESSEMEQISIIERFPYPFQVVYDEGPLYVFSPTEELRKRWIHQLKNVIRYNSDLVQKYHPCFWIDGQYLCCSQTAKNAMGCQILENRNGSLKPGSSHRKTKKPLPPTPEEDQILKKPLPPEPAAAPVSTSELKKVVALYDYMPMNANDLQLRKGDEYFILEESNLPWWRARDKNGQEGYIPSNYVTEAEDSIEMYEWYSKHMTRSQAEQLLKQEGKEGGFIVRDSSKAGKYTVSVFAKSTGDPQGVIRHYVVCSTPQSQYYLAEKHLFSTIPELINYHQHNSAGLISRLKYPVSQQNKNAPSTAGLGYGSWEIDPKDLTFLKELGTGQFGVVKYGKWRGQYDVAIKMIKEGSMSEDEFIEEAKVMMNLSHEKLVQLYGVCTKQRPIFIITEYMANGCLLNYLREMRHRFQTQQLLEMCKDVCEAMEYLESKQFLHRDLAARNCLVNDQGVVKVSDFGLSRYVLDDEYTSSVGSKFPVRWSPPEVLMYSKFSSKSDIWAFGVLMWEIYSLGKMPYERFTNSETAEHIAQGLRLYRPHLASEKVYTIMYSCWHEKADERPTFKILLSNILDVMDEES
So I've got a bunch of molecules here, and I need their IC50 values.
Give bare numbers, in nM.

| molecule | IC50 / nM |
| --- | --- |
| C=CC(=O)N1CC[C@H](Nc2nccc(Nc3ncc(C(=O)Nc4c(C)cccc4C)s3)n2)C1 [Compound I-3] | 0.6 |
| C=CC(=O)N1CC[C@@H](Nc2nccc(Nc3ncc(C(=O)Nc4c(C)cccc4C)s3)n2)C1 [Compound I-4] | 1.38 |
| Cn1ccc(Nc2nc3ccc(Oc4ccccc4)nc3s2)n1 [III-6] | 2580 |
| C=CC(=O)N1CC[C@H](Nc2nccc(Nc3ncc(C(=O)Nc4c(C)cccc4Cl)s3)n2)C1 [Compound I-10] | 1.74 |
| C=CC(=O)N1CC[C@H](Nc2nc(CN3CCOCC3)cc(Nc3ncc(C(=O)Nc4c(C)cccc4C)s3)n2)C1 [Compound I-2] | 1.63 |
| CCC(=O)N1CC[C@H](Nc2nccc(Nc3ncc(C(=O)Nc4c(C)cccc4C)s3)n2)C1 [Compound I-9] | 0.5 |
| C=CC(=O)N1CCC[C@@H](Nc2nccc(Nc3ncc(C(=O)Nc4c(C)cccc4C)s3)n2)C1 [Compound I-6] | 1.9 |

Prompt line: Please give the measured IC50 for this molecule: C=CC(=O)N1CCC(Cn2ccc(Nc3ncc(C(=O)Nc4c(C)cccc4Cl)s3)n2)C1 (stereo not drawn) [II-1]
Response line: 1.1

====

# Tested on: Ramos
# protocol notes: CellTiter-Glo Luminescent cell viability assay
# Type: cell-based
# condition: cell survival, 72 hours
metric: EC50

Guide cases for EC50, answers given:
| compound | system tested | EC50 |
| --- | --- | --- |
| C=CC(=O)N1CC[C@H](Nc2nccc(Nc3ncc(C(=O)Nc4c(C)cccc4C)s3)n2)C1 | Ramos | > 20 µM |
| c1ccc(Oc2ccc3nc(Nc4cnn(C5CCOCC5)c4)sc3n2)cc1 | Ramos | > 20 µM |
| C=CC(=O)N1CC[C@@H](Nc2nccc(Nc3ncc(C(=O)Nc4c(C)cccc4C)s3)n2)C1 | Ramos | > 20 µM |
| C=CC(=O)N1CCCC(Cn2ccc(Nc3ncc(C(=O)Nc4c(C)cccc4Cl)s3)n2)C1 (stereo not shown) | Ramos | > 20 µM |
| C=CC(=O)N1CCC(Cn2ccc(Nc3ncc(C(=O)Nc4c(C)cccc4Cl)s3)n2)C1 (stereo not shown) | Ramos | > 20 µM |

Batch lookup, EC50 per entry.
1. C=CC(=O)N1CC[C@H](Nc2nccc(Nc3ncc(C(=O)Nc4c(C)cccc4Cl)s3)n2)C1
2. c1ccc(Oc2ccc3nc(Nc4cnn(C5CCNCC5)c4)sc3n2)cc1

Response line:
1. 0.012 µM
2. 11.8 µM

====

As a worked illustration, we turn to % change of MS signal compared to control sample data collected for PCTAIRE2 (Homo sapiens (Human)).

Guide cases for % change of MS signal compared to control sample, answers given:
| molecule | system tested | value observed |
| --- | --- | --- |
| C=CC(=O)N1CCC(CNc2nccc(Nc3ncc(C(=O)Nc4c(C)cccc4C)s3)n2)C1 (racemic) | PCTAIRE2 (Homo sapiens (Human)) | 8.5% |
| C=CC(=O)N1CCCCC(Nc2nccc(Nc3ncc(C(=O)Nc4c(C)cccc4C)s3)n2)C1 (stereo not shown) | PCTAIRE2 (Homo sapiens (Human)) | 9.9% |
| C=CC(=O)N1CCC(Cn2ccc(Nc3ncc(C(=O)Nc4c(C)cccc4Cl)s3)n2)C1 (stereo not shown) | PCTAIRE2 (Homo sapiens (Human)) | 7.7% |

Next molecule, please.
Prompt line: Please give the measured % change of MS signal compared to control sample for this molecule: C=CC(=O)N1CC[C@@H](Nc2nccc(Nc3ncc(C(=O)Nc4c(C)cccc4C)s3)n2)C1
Response line: 13.4%
